Origin of the recorded values: ChEMBL document CHEMBL4219031

Experimental target: von Hippel-Lindau disease tumor suppressor/Serine/threonine-protein kinase TBK1 (Homo sapiens, UniProt Q9UHD2+P40337)
Experiment: Induction of VHL-mediated TBK1 degradation in human Panc02.13 cells after 16 hrs by Western blot method
Format: cell-based
Sequence (Q9UHD2 whole entry): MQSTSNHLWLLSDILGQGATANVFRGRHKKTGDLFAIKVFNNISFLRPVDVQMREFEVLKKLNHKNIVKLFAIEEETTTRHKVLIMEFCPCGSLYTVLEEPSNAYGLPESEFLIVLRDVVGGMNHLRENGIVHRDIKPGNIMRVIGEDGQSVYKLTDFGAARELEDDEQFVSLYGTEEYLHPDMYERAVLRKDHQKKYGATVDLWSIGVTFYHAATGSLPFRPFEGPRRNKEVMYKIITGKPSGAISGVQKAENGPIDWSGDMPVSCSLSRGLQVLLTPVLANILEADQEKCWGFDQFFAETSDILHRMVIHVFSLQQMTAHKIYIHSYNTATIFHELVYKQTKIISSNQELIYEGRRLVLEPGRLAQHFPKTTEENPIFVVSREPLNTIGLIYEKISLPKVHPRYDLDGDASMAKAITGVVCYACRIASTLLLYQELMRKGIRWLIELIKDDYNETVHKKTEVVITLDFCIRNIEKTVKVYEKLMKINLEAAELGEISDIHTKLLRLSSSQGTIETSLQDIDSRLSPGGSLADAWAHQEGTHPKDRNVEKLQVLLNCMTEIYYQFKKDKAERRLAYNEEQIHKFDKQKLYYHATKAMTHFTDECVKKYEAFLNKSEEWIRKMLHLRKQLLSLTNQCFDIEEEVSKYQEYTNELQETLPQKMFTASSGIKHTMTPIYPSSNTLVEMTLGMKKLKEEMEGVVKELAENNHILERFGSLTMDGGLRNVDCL
Sequence (P40337 whole entry): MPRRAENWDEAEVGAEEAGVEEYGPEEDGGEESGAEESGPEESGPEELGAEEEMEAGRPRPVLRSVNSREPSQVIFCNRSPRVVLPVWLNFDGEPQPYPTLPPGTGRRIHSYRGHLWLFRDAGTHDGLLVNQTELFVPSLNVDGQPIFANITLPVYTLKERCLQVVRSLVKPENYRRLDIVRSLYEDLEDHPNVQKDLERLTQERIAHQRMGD
Each item that follows carries a reported DC50.

Cc1ncsc1-c1ccc(CNC(=O)[C@@H]2C[C@@H](O)CN2C(=O)[C@@H](NC(=O)COCCOCCOCCCCOc2ccc(Nc3ncc(Br)c(NCCCN(C)C(=O)C4CCC4)n3)cc2)C(C)(C)C)cc1	71 nM
Cc1ncsc1-c1ccc(CNC(=O)[C@@H]2C[C@@H](O)CN2C(=O)CNC(=O)COCCCOCCCCOCCCOc2ccc(Nc3ncc(Br)c(NCCCN(C)C(=O)C4CCC4)n3)cc2)cc1	> 1000 nM

## Task Fill in the blank: the reported DC50 of Cc1ncsc1-c1ccc(CNC(=O)[C@@H]2C[C@@H](O)CN2C(=O)[C@@H](NC(=O)COCCCOCCCCOCCCOc2ccc(Nc3ncc(C4CC4)c(NCCCN(C)C(=O)C4CCC4)n3)cc2)C(C)(C)C)cc1 is ____.
## Result 65 nM

* * *

Each item that follows carries a reported Emax.
Experimental target: von Hippel-Lindau disease tumor suppressor/Serine/threonine-protein kinase TBK1 (Homo sapiens, UniProt Q9UHD2+P40337)
Experiment: Induction of VHL-mediated TBK1 degradation in human Panc02.13 cells after 16 hrs by Western blot method relative to control
Type: cell-based
Sequence (P40337 whole entry, looked up): as the sequence (P40337 whole entry) above
Sequence (Q9UHD2 whole entry, looked up): as the sequence (Q9UHD2 whole entry) above
Write the answer as a number in %, unit excluded.

// known answers, use as guide
Cc1ncsc1-c1ccc(CNC(=O)[C@@H]2C[C@@H](O)CN2C(=O)[C@@H](NC(=O)COCCCOCCCCOCCCOc2ccc(Nc3ncc(C4CCC4)c(NCCCN(C)C(=O)C4CCC4)n3)cc2)C(C)(C)C)cc1	70
CCc1cnc(Nc2ccc(OCCCOCCCCOCCCOCC(=O)N[C@H](C(=O)N3C[C@H](O)C[C@H]3C(=O)NCc3ccc(-c4scnc4C)cc3)C(C)(C)C)cc2)nc1NCCCN(C)C(=O)C1CCC1	77
Cc1ncsc1-c1ccc(CNC(=O)[C@@H]2C[C@@H](O)CN2C(=O)[C@@H](NC(=O)COCCOCCOCCOCCOCCOCCOc2ccc(Nc3ncc(Br)c(NCCCN(C)C(=O)C4CCC4)n3)cc2)C(C)(C)C)cc1	96

## Task Fill in the blank: the reported Emax of Cc1ncsc1-c1ccc(CNC(=O)[C@@H]2C[C@@H](O)CN2C(=O)[C@@H](NC(=O)COCCOCCOCCCCOc2ccc(Nc3ncc(Br)c(NCCCN(C)C(=O)C4CCC4)n3)cc2)C(C)(C)C)cc1 is ____.
## Result 86

## Task Fill in the blank: the reported Emax of Cc1ncsc1-c1ccc(CNC(=O)[C@@H]2C[C@@H](O)CN2C(=O)[C@@H](NC(=O)COCCCOCCCCOCCCOc2ccc(Nc3ncc(F)c(NCCCN(C)C(=O)C4CCC4)n3)cc2)C(C)(C)C)cc1 is ____.
## Result 74

## Task Fill in the blank: the reported Emax of Cc1ncsc1-c1ccc(CNC(=O)[C@@H]2C[C@@H](O)CN2C(=O)[C@@H](NC(=O)COCCCOCCCCCOc2ccc(Nc3ncc(Br)c(NCCCN(C)C(=O)C4CCC4)n3)cc2)C(C)(C)C)cc1 is ____.
## Result 79

## Task Fill in the blank: the reported Emax of Cc1ncsc1-c1ccc(CNC(=O)[C@@H]2C[C@@H](O)CN2C(=O)[C@@H](NC(=O)COCCCOCCCCOCCCOc2ccc(Nc3ncc(Cl)c(NCCCN(C)C(=O)C4CCC4)n3)cc2)C(C)(C)C)cc1 is ____.
## Result 96

## Task Fill in the blank: the reported Emax of CCC[C@H](NC(=O)COCCCOCCCCOCCCOc1ccc(Nc2ncc(Br)c(NCCCN(C)C(=O)C3CCC3)n2)cc1)C(=O)N1C[C@H](O)C[C@H]1C(=O)NCc1ccc(-c2scnc2C)cc1 is ____.
## Result 75

## Task Fill in the blank: the reported Emax of Cc1ncsc1-c1ccc(CNC(=O)[C@@H]2C[C@@H](O)CN2C(=O)[C@@H](NC(=O)COCCCOCCCCOCCCOc2ccc(Nc3ncc(Br)c(NCCCN(C)C(=O)C4CCC4)n3)cc2)C(C)(C)C)cc1 is ____.
## Result 96

## Task Fill in the blank: the reported Emax of Cc1ncsc1-c1ccc(CNC(=O)[C@@H]2C[C@@H](O)CN2C(=O)[C@@H](NC(=O)COCCCOCCCCOCCCOc2ccc(Nc3ncc(Br)c(NCCCN(C)C(=O)C4CCC4)n3)cc2)C(C)C)cc1 is ____.
## Result 88

## Task Fill in the blank: the reported Emax of Cc1ncsc1-c1ccc(CNC(=O)[C@@H]2C[C@@H](O)CN2C(=O)[C@@H](NC(=O)CCOCCCOCCCOCCCOCCCOc2ccc(Nc3ncc(Br)c(NCCCN(C)C(=O)C4CCC4)n3)cc2)C(C)(C)C)cc1 is ____.
## Result 96

## Task Fill in the blank: the reported Emax of Cc1ncsc1-c1ccc(CNC(=O)[C@@H]2C[C@@H](O)CN2C(=O)[C@@H](NC(=O)COCCOCCCCOCCCCOCCOc2ccc(Nc3ncc(Br)c(NCCCN(C)C(=O)C4CCC4)n3)cc2)C(C)(C)C)cc1 is ____.
## Result 96

## Task Fill in the blank: the reported Emax of Cc1ncsc1-c1ccc(CNC(=O)[C@@H]2C[C@@H](O)CN2C(=O)[C@@H](NC(=O)CCCCCOCCCCOCCCCOc2ccc(Nc3ncc(Br)c(NCCCN(C)C(=O)C4CCC4)n3)cc2)C(C)(C)C)cc1 is ____.
## Result 90

## Task Fill in the blank: the reported Emax of Cc1ncsc1-c1ccc(CNC(=O)[C@@H]2C[C@@H](O)CN2C(=O)[C@@H](NC(=O)COCCCOCCCCOCCCOc2ccc(Nc3ncc(C4CC4)c(NCCCN(C)C(=O)C4CCC4)n3)cc2)C(C)(C)C)cc1 is ____.
## Result 96

## Task Fill in the blank: the reported Emax of Cc1ncsc1-c1ccc(CNC(=O)[C@@H]2C[C@@H](O)CN2C(=O)[C@@H](NC(=O)COCCCCCOCCCCOCCCCOCCCCOCCCCCOc2ccc(Nc3ncc(Br)c(NCCCN(C)C(=O)C4CCC4)n3)cc2)C(C)(C)C)cc1 is ____.
## Result 76

## Task Fill in the blank: the reported Emax of Cc1ncsc1-c1ccc(CNC(=O)[C@@H]2C[C@@H](O)CN2C(=O)[C@@H](NC(=O)COCCOCCOCCOCCOCCOc2ccc(Nc3ncc(Br)c(NCCCN(C)C(=O)C4CCC4)n3)cc2)C(C)(C)C)cc1 is ____.
## Result 96

## Task Fill in the blank: the reported Emax of Cc1ncsc1-c1ccc(CNC(=O)[C@@H]2C[C@@H](O)CN2C(=O)[C@@H](NC(=O)COCCOCCOCCOCCOc2ccc(Nc3ncc(Br)c(NCCCN(C)C(=O)C4CCC4)n3)cc2)C(C)(C)C)cc1 is ____.
## Result 92

## Task Fill in the blank: the reported Emax of Cc1ncsc1-c1ccc(CNC(=O)[C@@H]2C[C@@H](O)CN2C(=O)[C@@H](NC(=O)COCCOCCCCOCCCCOCCOCCOc2ccc(Nc3ncc(Br)c(NCCCN(C)C(=O)C4CCC4)n3)cc2)C(C)(C)C)cc1 is ____.
## Result 96

## Task Fill in the blank: the reported Emax of Cc1cnc(Nc2ccc(OCCCOCCCCOCCCOCC(=O)N[C@H](C(=O)N3C[C@H](O)C[C@H]3C(=O)NCc3ccc(-c4scnc4C)cc3)C(C)(C)C)cc2)nc1NCCCN(C)C(=O)C1CCC1 is ____.
## Result 89

## Task Fill in the blank: the reported Emax of Cc1ncsc1-c1ccc(CNC(=O)[C@@H]2C[C@@H](O)CN2C(=O)[C@H](C)NC(=O)COCCCOCCCCOCCCOc2ccc(Nc3ncc(Br)c(NCCCN(C)C(=O)C4CCC4)n3)cc2)cc1 is ____.
## Result 34
